- System: CD2F1 mice, L1210 leukemia ip, survival T/C
- procedure details: NCI In Vivo Anticancer Drug Screen. Data for tumor model L1210 Leukemia (intraperitoneal) in CD2F1 (CDF1) mice
- study conditions: endpoint: median survival time; dose: 25.0 mg/kg/injection; schedule: Q01DX009 (ip); vehicle: saline with Tween-80; higher = longer survival
- Method: The antitumor activity of compounds was measured in mice bearing transplantable tumors. Survival or tumor size were measured and the results are expressed as the measurement made in the treated group (T) divided by the measurement made in the vehicle treated control group (C). The tumor model used in this assay is L1210 Leukemia (intraperitoneal) in CD2F1 (CDF1) mice
Toxic doses and inconclusive results are not listed.
Quick reference: T/C of the listed items.
reported metric: T/C

INSERT INTO assay_data (compound, meas_value) VALUES
  ('O=C(CCCN1CCC(C(O)c2ccc(F)cc2)CC1)c1ccc(F)cc1 (stereo not given)', '121 % of control'),
  ('CC(=O)ON(C(C)=O)c1ccc(C(N)=O)cc1', '103 % of control'),
  ('NC(=O)c1cc(Cl)nc2nc(Cl)nc(N)c12', '89 % of control'),
  ('CCCC1CCC(=C2C(=O)CCC2=O)O1 (stereo not given)', '98 % of control'),
  ('CC(=O)C[n+]1ccc(C)cc1Sc1ccccc1C', '98 % of control');
